Test system: Mycobacterium tuberculosis
Assay: Antimycobacterial activity Mycobacterium tuberculosis H37Rv after 6 days by MTT colorimetric assay
Format: functional, organism-based
Conditions: 144 h
Please respond with reported MIC for every item in the list.

Query block: Give Mycobacterium tuberculosis MIC for CCCCCCCCCCCCCCCCCCOc1cccc(C2(O)NC(=O)c3cnccc32)c1 (racemic)
Result block: 25 µM

Query block: Give Mycobacterium tuberculosis MIC for CCCCCCCCCCCCCCCCCCSc1cccc(C2(O)NC(=O)c3cnccc32)c1 (racemic)
Result block: > 100 µM

Query block: Give Mycobacterium tuberculosis MIC for CCCCCCCCCCCCOc1cccc(C2(O)NC(=O)c3cnccc32)c1 (racemic)
Result block: 156 µM

Query block: Give Mycobacterium tuberculosis MIC for CCCCCCCCCCCCNc1cccc(C2(O)NC(=O)c3cnccc32)c1 (racemic)
Result block: > 100 µM

Consider the additional compound presented here.
Query block: Give Mycobacterium tuberculosis MIC for CCCCCCCCCCCCN1C(=O)c2cnccc2C1(O)c1ccccc1 (racemic)
Result block: 12.5 µM

----------
Please respond with reported MIC for every item in the list.
Test system: Mycobacterium tuberculosis
Assay: Antimycobacterial activity Mycobacterium tuberculosis H37Rv after 6 days by MTT colorimetric assay
Format: functional, organism-based
Conditions: 144 h
Give bare numbers, in µM.

Below, each entry is followed by its recorded MIC result.
Query block: Which MIC is reported for this molecule? CCCCCCCCCCCCSc1cccc(C2(O)NC(=O)c3cnccc32)c1 (racemic)
Result block: 12.5

Query block: Which MIC is reported for this molecule? O=C(O)c1cn(C2CC2)c2cc(N3CCNCC3)c(F)cc2c1=O
Result block: 2.5

Query block: Which MIC is reported for this molecule? NNC(=O)c1ccncc1
Result block: 0.6

Query block: Which MIC is reported for this molecule? CCCCCCCCOc1cccc(C2(O)NC(=O)c3cnccc32)c1 (racemic)
Result block: 250

Query block: Which MIC is reported for this molecule? CCCCCCCCCCCCOc1cccc(C2(OC)NC(=O)c3cnccc32)c1 (racemic)
Result block: 25

Query block: Which MIC is reported for this molecule? CCCCCCCCCCCCOC1(c2ccccc2)NC(=O)c2cnccc21 (racemic)
Result block: 25

Consider the additional molecule presented here.
Query block: Which MIC is reported for this molecule? CCCCCCCCCCCCc1cccc(C2(O)NC(=O)c3cnccc32)c1 (racemic)
Result block: 9.8

----------
Target: Enoyl-[acyl-carrier-protein] reductase [NADH] (Mycobacterium tuberculosis) (UniProt P9WGR1)
Sequence (P9WGR1 whole entry): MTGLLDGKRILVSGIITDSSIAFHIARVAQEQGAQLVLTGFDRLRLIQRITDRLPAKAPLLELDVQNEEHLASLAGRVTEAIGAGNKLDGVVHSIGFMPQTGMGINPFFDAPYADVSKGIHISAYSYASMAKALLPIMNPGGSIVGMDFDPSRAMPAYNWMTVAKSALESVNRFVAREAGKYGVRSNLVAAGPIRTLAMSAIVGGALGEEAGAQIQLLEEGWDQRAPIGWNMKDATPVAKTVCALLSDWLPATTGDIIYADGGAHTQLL
Experiment: Inhibition of Mycobacterium tuberculosis InhA using 2-trans-decenoyl-CoA as substrate at 30 uM after 5 mins by spectrophotometry
ASSAY METRIC: inhibition

Query block: Which inhibition is reported for this molecule? CCCCCCCCCCCCN1C(=O)c2cnccc2C1(O)c1ccccc1 (racemic)
Result block: 0%

// each molecule listed below needs its inhibition
1. CCCCCCCCCCCCOc1cccc(C2(O)NC(=O)c3cnccc32)c1 (racemic)
2. CCCCCCCCCCCCOc1ccc(C2(O)NC(=O)c3cnccc32)cc1 (racemic)
3. CCCCCCCCCCCCCCCCCCOc1cccc(C2(O)NC(=O)c3cnccc32)c1 (racemic)
4. CCCCCCCCCCCCOc1ccccc1C1(O)NC(=O)c2cnccc21 (racemic)
5. CCCCCCCCCCCCNc1cccc(C2(O)NC(=O)c3cnccc32)c1 (racemic)
6. CCCCCCCCCCCCOC1(c2ccccc2)NC(=O)c2cnccc21 (racemic)
7. CCCCCCCCCCCCCCCCCCSc1cccc(C2(O)NC(=O)c3cnccc32)c1 (racemic)

Result block:
12%
1%
28%
0%
1%
20%
26%

Query block: Which inhibition is reported for this molecule? CCCCCCCCCCCCSc1cccc(C2(O)NC(=O)c3cnccc32)c1 (racemic)
Result block: 15%

Recorded values, source ChEMBL document CHEMBL1914444.
